# TGT: human PAD4 (hPAD4) (Homo sapiens, UniProt Q9UM07)
# Sequence (Q9UM07 whole entry): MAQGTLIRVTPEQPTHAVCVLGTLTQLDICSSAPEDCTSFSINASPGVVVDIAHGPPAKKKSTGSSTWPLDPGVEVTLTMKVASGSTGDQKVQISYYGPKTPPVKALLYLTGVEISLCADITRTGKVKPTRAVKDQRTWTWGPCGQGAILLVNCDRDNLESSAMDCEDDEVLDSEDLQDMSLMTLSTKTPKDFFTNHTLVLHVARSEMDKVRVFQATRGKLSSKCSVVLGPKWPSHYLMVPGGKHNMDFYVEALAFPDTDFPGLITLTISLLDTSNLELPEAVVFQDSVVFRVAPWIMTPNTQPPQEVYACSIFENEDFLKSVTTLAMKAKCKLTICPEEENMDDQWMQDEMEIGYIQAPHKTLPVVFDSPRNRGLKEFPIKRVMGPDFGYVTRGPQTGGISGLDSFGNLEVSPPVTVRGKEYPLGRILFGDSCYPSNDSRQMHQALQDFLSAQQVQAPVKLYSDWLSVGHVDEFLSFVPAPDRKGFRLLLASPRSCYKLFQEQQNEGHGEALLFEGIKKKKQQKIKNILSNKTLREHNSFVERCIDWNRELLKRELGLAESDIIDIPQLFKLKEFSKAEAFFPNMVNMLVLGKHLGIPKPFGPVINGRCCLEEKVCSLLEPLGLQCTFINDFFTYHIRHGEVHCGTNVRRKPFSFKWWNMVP
# METHOD_SUMMARY: RFMS human PAD4 functional assay (rapid-fire mass spectrum)
# SETUP_CONDITIONS: 5 nM hPAD4 enzyme, 250 μM BAEE, 50 μM Calcium; 30 min preincubation, 90 min reaction at 37° C.
Provide the reported IC50 of each item.
Give bare numbers, in nM.

Some compounds with known IC50 results, for comparison:
COc1cc(C(=O)N2CC3CCC2[C@@H]3N)cc2nc(-c3cc4ccccc4n3CC3CC3)n(Cc3cnn(-c4ccc(C(F)F)nc4)c3)c12 (stereo partly drawn) :: 42
COc1cc(C(=O)N2CC3CCC2[C@@H]3N)cc2nc(-c3cc4ccccc4n3CC3CC3)n(CC3CN(C(=O)c4ccc(C#N)nc4)C3)c12 (stereo partly drawn) :: 41
CCn1cc(Cn2c(-c3cc4cccnc4n3CC3CC3)nc3cc(C(=O)N4CC5CCC4[C@@H]5N)cc(OC)c32)cn1 (stereo partly drawn) :: 55
COc1cc(C(=O)N2C[C@H]3CC[C@@H]2[C@@H]3N)cc2nc(-c3cc4cccnc4n3CC3CC3)n(C3CN(c4ccnc(C)n4)C3)c12 :: 307
COc1cc(C(=O)N2C[C@H]3CC[C@@H]2[C@@H]3N)cc2nc(-c3cc4cccnc4n3CC3CC3)n(CC3CN(C(=O)CNC(C)=O)C3)c12 :: 316

Now take the following compound into account.
Data request, read-out IC50, for `COc1cc(C(=O)N2C[C@H]3CC[C@@H]2[C@@H]3N)cc2nc(-c3cc4cccnc4n3CC3CC3)n(CC3CN(c4cccc5c4CNC5=O)C3)c12`
163

* * *

# TGT: human PAD4 (hPAD4) (Homo sapiens, UniProt Q9UM07)
# METHOD_SUMMARY: RFMS human PAD4 functional assay (rapid-fire mass spectrum)
# Assay type: biochemical
# SETUP_CONDITIONS: 5 nM hPAD4 enzyme, 250 μM BAEE, 50 μM Calcium; 30 min preincubation, 90 min reaction at 37° C.
QUANTITY_NAME: IC50 (nM)
One number for each entry, in nM.

COc1cc(C(=O)N2CC3CCC2[C@@H]3N)cc2nc(-c3cc4ccccc4n3CC3CC3)n(CC3CN(C(=O)c4ncccn4)C3)c12 (some centres unmarked) :: 43
COc1cc(C(=O)N2C[C@H]3CC[C@@H]2[C@@H]3N)cc2nc(-c3cc4cccnc4n3CC3CC3)n(CC3CN(C(=O)c4ccnc(Cl)c4)C3)c12 :: 33
COc1cc(C(=O)N2CC3CCC2[C@@H]3N)cc2nc(-c3cc4ccccc4n3CC3CC3)n(Cc3cn(C)nn3)c12 (some centres unmarked) :: 149
COc1cc(C(=O)N2CC3CCC2[C@@H]3N)cc2nc(-c3cc4ccccc4n3CC3CC3)n(CC3CN(C(=O)c4ccnc(F)c4)C3)c12 (some centres unmarked) :: 16

Now take the following compound into account.
Param readout = IC50; param system = human PAD4 (hPAD4) (Homo sapiens, UniProt Q9UM07); param query = `COc1cc(C(=O)N2C[C@H]3CC[C@@H]2[C@@H]3N)cc2nc(-c3cc4ccccc4n3CC3CC3)n(CC3CN(C(=O)c4ccccc4F)C3)c12` ; response: value
26

* * *

# TGT: human PAD4 (hPAD4) (Homo sapiens, UniProt Q9UM07)
# METHOD_SUMMARY: RFMS human PAD4 functional assay (rapid-fire mass spectrum)
# Format: biochemical
# SETUP_CONDITIONS: 5 nM hPAD4 enzyme, 250 μM BAEE, 50 μM Calcium; 30 min preincubation, 90 min reaction at 37° C.
QUANTITY_NAME: pIC50
Numbers only, as −log10 of the molar value.

Some molecules with known pIC50 results, for comparison:
COc1cc(C(=O)N2C[C@H]3CC[C@@H]2[C@@H]3N)cc2nc(-c3cc4cccnc4n3CC3CC3)n(CC3CCN(C(=O)c4ccnc(C)n4)CC3)c12 [Example 199] :: 6.79
C/C=C/C(=O)N1CC(Cn2c(-c3cc4cccnc4n3CC3CC3)nc3cc(C(=O)N4C[C@H]5CC[C@@H]4[C@@H]5N)cc(OC)c32)C1 [Example 116] :: 7.23
N[C@@H]1C2CCC1N(C(=O)c1cc(F)c3c(c1)nc(-c1cc4ccccc4n1CC1CC1)n3CC1CN(C(=O)c3ccccc3)C1)C2 (some centres unmarked) [Example 136] :: 7.96
COc1cc(C(=O)N2C[C@H]3CC[C@@H]2[C@@H]3N)cc2nc(-c3cc4ccccc4n3CC3CC3)n(CC3CN(C(=O)c4nnn(C)n4)C3)c12 [Example 142] :: 7.85
COc1cc(C(=O)N2C[C@H]3CC[C@@H]2[C@@H]3N)cc2nc(-c3cc4ccccc4n3CC3CC3)n(Cc3ccccn3)c12 [Example 280] :: 6.26

For each of the molecules below, note its pIC50.
1. COc1cc(C(=O)N2CC3CCC2[C@@H]3N)cc2nc(-c3cc4cccnc4n3CC3CC3)n(Cc3cnn(-c4cccc(O)n4)c3)c12 (some centres unmarked) [Example 353]
2. COc1cc(C(=O)N2C[C@H]3CC[C@@H]2[C@@H]3N)cc2nc(-c3cc4cccnc4n3CC3CC3)n(C3CN(S(=O)(=O)c4ccccc4)C3)c12 [Example 329]
3. COc1cc(C(=O)N2CC3CCC2[C@@H]3N)cc2nc(-c3cc4ccccc4n3CC3CC3)n(Cc3cnn(CC#N)c3)c12 (some centres unmarked) [Example 405]
4. COc1cc(C(=O)N2C[C@H]3CC[C@@H]2[C@@H]3N)cc2nc(-c3cc4cccnc4n3CC3CC3)n(CC3CN(C(=O)c4cnc(NCC(C)(C)O)nc4)C3)c12 [Example 121]
5. COc1cc(C(=O)N2CC3CCC2[C@@H]3N)cc2nc(-c3cc4ccccc4n3CC(F)(F)F)n(Cc3cnn(C)c3)c12 (some centres unmarked) [Example 495]
6. COc1cc(C(=O)N2CC3CCC2[C@@H]3N)cc2nc(-c3cc4cccnc4n3CC3CC3)n(CC3CN(C(=O)[C@@H]4C[C@H]4C)C3)c12 (some centres unmarked) [Example 128]
7. COc1cc(C(=O)N2C[C@H]3CC[C@@H]2[C@@H]3N)cc2nc(-c3cc4cccnc4n3CC3CC3)n(CC3CN(C(=O)C4CCCC4)C3)c12 [Example 113]

[7.70, 6.79, 7.18, 7.02, 7.06, 6.96, 7.28]

For each of the molecules below, note its pIC50.
1. COc1cc(C(=O)N2CC3CCC2[C@@H]3N)cc2nc(-c3cc4ccccc4n3CC3CC3)n(CC3CCN(c4ncccn4)C3)c12 (stereo in doubt) [Example 228]
2. COc1cc(C(=O)N2C[C@H]3CC[C@@H]2[C@@H]3N)cc2nc(-c3cc4ccccc4n3CC3CC3)n(CC3CN(C(=O)c4nn[nH]n4)C3)c12 [Example 173]

1: 7.00; 2: 7.30

Where do the numbers come from? From patent US12692254B2.
